Property: koff; scope: individual binders
- test-system: Adeno-associated virus serotype 8 (AAV8) (AAV8)
- measurement-description: SPR, AAV amine-coupled to CM5 chip, nanobody 1-50 nM as analyte
Give just the number in s⁻¹; leave the unit off.

Some solved entries appear below for comparison.
binder="A4-T2 (A4-017 with a C-terminal GGGGS linker followed by a 6xHis tag) (VHH) VHH: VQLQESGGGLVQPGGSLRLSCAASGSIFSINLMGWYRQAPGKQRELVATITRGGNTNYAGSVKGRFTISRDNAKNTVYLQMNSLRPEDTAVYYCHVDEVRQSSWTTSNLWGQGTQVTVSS" measurement_type=koff unit_descriptor=s⁻¹ val=0.00078
binder="A4-M2 (A4-017 with an N-terminal methionine) (VHH) VHH: QVQLQESGGGLVQPGGSLRLSCAASGSIFSINLMGWYRQAPGKQRELVATITRGGNTNYAGSVKGRFTISRDNAKNTVYLQMNSLRPEDTAVYYCHVDEVRQSSWTTSNLWGQGTQVTVSS" measurement_type=koff unit_descriptor=s⁻¹ val=0.001
binder="A4-M1 (A4-017 with an N-terminal amino acid sequence MetAlaGln) (VHH) VHH: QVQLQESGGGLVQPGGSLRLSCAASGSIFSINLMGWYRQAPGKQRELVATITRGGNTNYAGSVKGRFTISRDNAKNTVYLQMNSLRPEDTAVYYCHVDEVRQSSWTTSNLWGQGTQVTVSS" measurement_type=koff unit_descriptor=s⁻¹ val=0.0014
binder="A4-L1 (A4-017 with a C-terminal IgA hinge followed by a 6xHis tag) (VHH) VHH: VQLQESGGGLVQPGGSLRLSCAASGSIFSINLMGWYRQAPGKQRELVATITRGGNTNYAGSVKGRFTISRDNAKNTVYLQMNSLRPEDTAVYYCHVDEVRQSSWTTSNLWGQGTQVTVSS" measurement_type=koff unit_descriptor=s⁻¹ val=0.00093

In the following, a different binder is considered.
// query koff value for entry A4-T1 (A4-017 with a C-terminal 6xHis tag) (VHH) VHH: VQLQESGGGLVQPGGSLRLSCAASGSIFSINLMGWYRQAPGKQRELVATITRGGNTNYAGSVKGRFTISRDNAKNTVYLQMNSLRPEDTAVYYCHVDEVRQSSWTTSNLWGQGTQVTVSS 0.00148
